System: T47D
Assay: NCI tumour cell line growth inhibition, 48 h
Activity calls are given as the source filed them. Rule as the data show it: active = GI50 up to about 1.1 µM and inactive = higher. Numbered stars: 1 amine (or outer) side, 2 acyl side, 3 side chain; on linkers, the order of the positions; unused ones are H or OH. Square brackets hold non-standard residues; d marks the D form. Peptide text beside a SMILES is read from it. X55 = CC[C@H](C)[C@H](OC(=O)[C@@H](C)[C@@H](CC)N[*:1])C(=O)[*:2]; X31 = C[C@H](N[*:1])C(=O)C(C)(C)C(=O)[*:2]; NMeY = CN[C@@H](Cc1ccc(O)cc1)C(=O)O; NMeL = CN[C@@H](CC(C)C)C(=O)O; NMeV = CN[C@H](C(=O)O)C(C)C
Your answer must be one of the following: 1 = active, 0 = inactive

Ask: Identify the outcome logged in this assay for the compound shown: CCOC(=O)/C=C(/C)Nc1nc2c(c(C(=O)OC)c1C#N)CCCC2
Result: 0

Ask: And the next one, CCOC(=O)CN1CCNCCN(CC(=O)OCC)CCNCC1 ?
Result: 0

Ask: Item: O=c1[nH]cc(F)c(=O)[nH]1 [FLUOROURACIL]
Result: 0

Ask: Then what about the compound CCN(CC)CCN1C(=O)C(=O)N(c2cccc3ccccc23)C1=O ?
Result: 0

Ask: Also need CN(C)c1ccc2c(SCC(=O)OCC(=O)[C@@]3(O)CC[C@H]4[C@@H]5CCC6=CC(=O)C=C[C@]6(C)[C@H]5C(=O)C[C@@]43C)c3ccc(N(C)C)cc3nc2c1 , thanks.
Result: 0

Ask: Same thing, different compound: CC[C@H](C)[C@@H]1OC(=O)[C@@H](C)[C@@H](CC)NC(=O)[C@H](C)NC(=O)C(C)(C)C(=O)[C@H](C)NC(=O)[C@H](Cc2ccc(OC)cc2)N(C)C(=O)[C@H](C(C)C)N(C)C(=O)CNC(=O)[C@H](CC(C)C)N(C)C(=O)CNC1=O [DOLASTATIN 11] (cyclo(A[X55]G[NMeL]G[NMeV][NMeY](Me)[X31]))
Result: 1

Ask: // next record Oc1cccc(-c2cc(O)c3cc4c(cc3n2)OCO4)c1
Result: 0

* * *

Please respond with reported GI50 for every item in the list.
Test system: MDA-MB-435
Assay: NCI tumour cell line growth inhibition, 48 h
The source made the active and inactive calls. Cut-off read from the data, not from the text of the source: active = GI50 up to about 1.1 µM and inactive = higher.

Ask: For the compound shown here, CC(=O)OCC1OC(OCC2OC(N3C(=S)N[C@H]([C@@H](O)[C@H](O)[C@H](O)CO)[C@H]3O)C(OC(C)=O)C(OC(C)=O)C2OC(C)=O)C(OC(C)=O)C(OC(C)=O)C1OC(C)=O (stereo not given in full) , give the reported GI50.
Result: > 100 µM (inactive)

Ask: Likewise for CN(C)CCNc1ccc2c(=O)n(CCN(C)C)c(=O)n3c4ccc(N)cc4c(=O)c1c23 ?
Result: 0.101 µM (active)

Ask: And CC1(C)C2CC(=O)C1(C)C(O)C2Br (stereo not given) ?
Result: > 100 µM (inactive)

Ask: Another compound to look at: Clc1ccc(C(OCn2ccnc2)c2nc3ccccc3[nH]2)c(Cl)c1 (stereo not given)
Result: 25.2 µM (inactive)

Ask: Proceed to CCN(Cc1cc(Cl)cc(C)c1O)Cc1c(O)ccc2ccccc12
Result: 15.8 µM (inactive)

Ask: Then NCC(O)CSCc1ccc(Cl)cc1 (stereo not given) ?
Result: > 100 µM (inactive)

Ask: Can you check CCOC(=O)/C=C(/C)Nc1nc2c(c(C(=O)OC)c1C#N)CCCC2 next?
Result: > 100 µM (inactive)

Ask: Same again, this time with N#Cc1ccccc1-c1nc2c3c(c(N)ccc3n1)C(=O)c1ccccc1-2
Result: 76.2 µM (inactive)

Ask: Same for O=C1c2ccccc2C(=O)c2c(NCC3CO3)cccc21 (stereo not given)
Result: 7.59 µM (inactive)

Ask: What do you get for CC1=C(C(=O)Nc2ccc(Cl)c(C(=O)OC(C)C)c2)SCCO1 ?
Result: > 100 µM (inactive)

* * *

Test system: NCI-H460
Experiment: NCI tumour cell line growth inhibition, 48 h
Activity calls are given as the source filed them. No stated cut-off is given here; in the data, active = GI50 up to about 1.1 µM and inactive = higher.
Answer with one of the outcomes Yes for active, No for inactive

Ask: What did this assay record as the result for O=c1cc2ccccc2nn1Cc1cccc(Cl)c1 ?
Result: No

Ask: Next compound: CC1=C(CO)C2=C(C)C3(CC3)[C@@](C)(O)C(=O)C2=C1
Result: Yes

Ask: # repeat for FC(F)(Sc1ccccn1)c1nc2ccccc2o1
Result: No

Ask: Queued: COc1cc(COC(=O)N2CCCCC2C(=O)O)c([N+](=O)[O-])cc1OC (stereo unspecified)
Result: No

Ask: Can you check O=C(O)c1ccc2c(c1C(=O)O)C(=O)OC2(c1ccc(O)cc1)c1ccc(O)cc1 next?
Result: No

Ask: Can you check O=C(Nc1ccc(Cl)c(Cl)c1)C(=O)C(C(=O)c1ccccc1-c1ccccc1)C1OC(=O)c2ccccc21 (stereo unspecified) next?
Result: No

Ask: Param item: O=C(Nc1cccc(Cl)c1)Nn1cnnc1
Result: No

Ask: Then CCC1C(=O)C(O)[C@H]2[C@@H]3C(O)CC4=CC(=O)CC[C@]4(C)[C@H]3CC[C@]12C (stereo partly specified) ?
Result: No

Ask: And O=C(O)CSC1=NC(=O)C2(NN1)c1ccccc1-c1ccccc12 ?
Result: No

Ask: Please answer likewise for COc1ccc(/C=C/c2cnnc3ccccc23)cc1OC
Result: No

Ask: And Cc1csc2nc(-c3ccc(Cl)c([N+](=O)[O-])c3)c(/C=N/NC(=N)N)n12 ?
Result: No

* * *

Consider the following compounds; for each one, report its GI50.
Test system: A498
Assay: NCI tumour cell line growth inhibition, 48 h
Calls of active or inactive are those of the source. Cut-off read from the data, not from the text of the source: active = GI50 up to about 1.1 µM and inactive = higher.

Ask: Which measured GI50 value corresponds to CCN(CC)c1ccc(C(=O)c2ccccc2C(=O)O)c(O)c1 ?
Result: > 100 µM (inactive)

Ask: Thanks! And O=C(c1c(O)cc(O)cc1O)C1Cc2ccccc21 (stereo not drawn) ?
Result: > 100 µM (inactive)

Ask: Okay, and CC(=O)Nc1ccc2nc(-c3ccccn3)c(-c3ccccn3)nc2c1 ?
Result: > 100 µM (inactive)

Ask: Now the same for Cc1c(NC(=S)Nc2ccc([N+](=O)[O-])cc2)c(=O)n(-c2ccccc2)n1C
Result: > 100 µM (inactive)

Ask: Another: CC[C@H](C)[C@H](NC(=O)[C@@]1(O)[C@H](O)[C@]2(CC)C=CCN3CC[C@@]4(c5cc(Br)c(OC)cc5N(C)[C@@H]14)[C@@H]32)C(=O)OC
Result: 25.3 µM (inactive)

Ask: Field entry: CCOC(=O)Cc1nnc2c(-c3ccccc3)nc3ccccc3n12
Result: 52.5 µM (inactive)

Ask: Now the compound CCC1CC2CN3CCc4c([nH]c5c(-c6c(OC)ccc7c8c([nH]c67)[C@]6(C(=O)OC)CC7CC(CC)C6N(CC8)C7)c(O)ccc45)[C@](C(=O)OC)(C2)C13 (stereo partly drawn)
Result: 15.1 µM (inactive)

Ask: Same thing, different compound: COC(=O)[C@@H]1[C@H]2CC[C@]3(C)[C@@H](OC(C)=O)CC[C@H]3[C@@H]2CC[C@H]1C(C)=O
Result: > 100 µM (inactive)

Ask: Subsequent entry: CCOC(=O)/C(O)=C1\C(=O)N(C)C(=O)C1c1ccc(OC)c(OC)c1 (stereo not drawn)
Result: > 100 µM (inactive)

Ask: How about C/C(CC(=O)Nc1cccc(Cl)c1C)=N\NC(N)=S ?
Result: > 100 µM (inactive)

Ask: Same thing, different compound: O=C(c1ccccc1)c1ccc(OCCOc2ccc(Nc3ccccc3)cc2)cc1
Result: 27.4 µM (inactive)

Ask: Another: FC(F)(Sc1ccccn1)c1nc2ccccc2o1
Result: 38.7 µM (inactive)

Ask: # repeat for N#CCOc1cccc(C2(N3CC=CCC3)CCCCC2)c1
Result: > 100 µM (inactive)

Ask: What about this compound? COC(=O)[C@]1(NC(=O)c2ccccc2)C[C@H]1C=O
Result: > 71.8 µM (inactive)

Ask: Another: CC(=O)Oc1cc2c(cc1OCC(F)(F)F)[C@H]1CC[C@]3(C)[C@@H](OC(C)=O)CC[C@H]3[C@@H]1CC2=O
Result: 6.18 µM (inactive)

Ask: Then COC(=O)CC[C@@H](C)[C@H]1CC[C@H]2[C@@H]3CC[C@@H]4C[C@H](O)CC[C@]4(C)[C@H]3CC[C@]12C ?
Result: 20.5 µM (inactive)

Ask: Continue with O=C1Oc2cc3c(c4cccc1c24)OCN(c1ccccc1)C3
Result: > 100 µM (inactive)

Ask: Also Cc1cccc(/N=N/c2c(C)nn(C(=O)CC(=O)Nc3ccc(Cl)cc3)c2C)c1 ?
Result: 43.8 µM (inactive)

Origin of measurements: ChEMBL document CHEMBL1201862
